Recorded below: MIC, system Cryptococcus gattii.

>  <Smiles Notation>
COc1cc(F)cc(NCc2ccc(Cc3cc(-c4cccnc4N)on3)cc2)c1

>  <MIC>
> 1 µg/mL

$$$$
>  <Smiles Notation>
Nc1ncccc1-c1cc(Cc2ccc(/C=C/C3CCCCC3)cc2)no1

>  <MIC>
0.1 to 1 µg/mL

$$$$
>  <Smiles Notation>
Nc1ncccc1-c1cc(Cc2ccc(OCc3ccncc3)nc2)no1

>  <MIC>
≤ 0.01 µg/mL

$$$$
>  <Smiles Notation>
Nc1ncccc1-c1cc(Cc2ccc(Oc3cccc(F)c3)nc2)no1

>  <MIC>
0.01 to 0.1 µg/mL

$$$$
>  <Smiles Notation>
Nc1ncccc1-c1cc(Cc2ccc(OCCc3ccccc3F)nc2)no1

>  <MIC>
0.01 to 0.1 µg/mL

$$$$

Values compiled from patent US11512079B2.
